# Test system: Rattus norvegicus
# assayRemarks: Relative potency required for hypotensive activity in anesthetized rat
# Format: functional
Quick reference for Relative potency among some compounds

Cc1noc(/C=C/c2ccccc2OCC(O)CNC(C)(C)C)c1Cl (stereo unspecified) :: ~5.2
CCc1cc(/C=C/c2ccccc2OCC(O)CNC(C)(C)C)on1.Cl (stereo unspecified) :: 5.6
CC(CCc1ccccc1)NCC(O)c1ccc(O)c(C(N)=O)c1 (stereo unspecified) [LABETALOL] :: 1
Cc1cc(/C=C/c2ccccc2OCC(O)CNC2CC2)on1 (stereo unspecified) :: ~3.5
COc1ccc(CCC(C)(C)NCC(O)COc2ccccc2/C=C/c2cc(C)no2)cc1 (stereo unspecified) :: ~5.2
CCc1cc(/C=C/c2ccccc2OCC(O)CNC(C)C)on1.Cl (stereo unspecified) :: 12.7
COc1ccc(CC(C)NCC(O)COc2ccccc2/C=C/c2cc(C)no2)cc1OC (stereo unspecified) :: ~2.4
Cc1noc(/C=C/c2ccccc2OCC(O)CNC(C)(C)C)c1C (stereo unspecified) :: ~7.6

Query :: If you can, please state the reported Relative potency value of COCc1cc(/C=C/c2ccccc2OCC(O)CNC(C)(C)C)on1.Cl (stereo unspecified) .
Result :: ~6.5

Query :: If you can, please state the reported Relative potency value of COCc1cc(/C=C/c2ccccc2OCC(O)CNC2CC2)on1 (stereo unspecified) .
Result :: ~5.2

Query :: If you can, please state the reported Relative potency value of Cc1cc(/C=C/c2ccccc2OCC(O)CNC(C)(C)C)on1.Cl (stereo unspecified) .
Result :: 13

Query :: If you can, please state the reported Relative potency value of Cc1cc(C=Cc2ccccc2OCC(O)CNC(C)(C)C)no1.Cl (stereo unspecified) .
Result :: ~2.4

Query :: If you can, please state the reported Relative potency value of C#CC(C)(C)NCC(O)COc1ccccc1/C=C/c1cc(C)no1.Cl (stereo unspecified) .
Result :: 4.2

Query :: If you can, please state the reported Relative potency value of CC(C)NCC(O)COc1ccccc1/C=C/c1cc(Cl)no1 (stereo unspecified) .
Result :: 7.6

Query :: If you can, please state the reported Relative potency value of Cc1cc(/C=C/c2ccccc2OCC(O)CNC(C)(C)CCc2ccc(O)cc2)on1 (stereo unspecified) .
Result :: ~5.2

Query :: If you can, please state the reported Relative potency value of Cc1cc(/C=C/c2ccccc2OCC(O)CNC(C)C)on1 (stereo unspecified) .
Result :: 8

Query :: If you can, please state the reported Relative potency value of Cc1noc(/C=C/c2ccccc2OCC(O)CNC(C)(C)C)c1[N+](=O)[O-] (stereo unspecified) .
Result :: ~5.2

Query :: If you can, please state the reported Relative potency value of COCc1cc(/C=C/c2ccccc2OCC(O)CNC(C)C)on1.Cl (stereo unspecified) .
Result :: ~5.2

Query :: If you can, please state the reported Relative potency value of Cc1cc(/C=C/c2ccccc2OCC(O)CNC(C)CCc2ccc(O)cc2)on1 (stereo unspecified) .
Result :: 10.6

Query :: If you can, please state the reported Relative potency value of Cc1cc(/C=C/c2ccccc2OCC(O)CNC(C)CCc2ccccc2)on1 (stereo unspecified) .
Result :: ~5.2

Query :: If you can, please state the reported Relative potency value of Cc1cc(/C=C/c2ccccc2OCC(O)CNC(C)C)no1.Cl (stereo unspecified) .
Result :: ~2.4

FYI, the data here is from ChEMBL document CHEMBL1121762.
